tested on: GABAB receptor-mediated outward current in hypothalamic arcuate neurons (membrane associated estrogen receptor); assay: Whole-cell patch voltage clamp: attenuation of the baclofen-induced GABAB response (GIRK outward current) in hypothalamic slices; format: cell-based, guinea pig

# STRUCTURE_NOTATION, effect on the baclofen (GABAB) response
data = [
    ("C[C@]12CC[C@@H]3c4ccc(O)cc4CC[C@H]3[C@@H]1CC[C@H]2O", "no effect"),
    ("C[C@]12CC[C@@H]3c4ccc(O)cc4CC[C@H]3[C@@H]1CC[C@@H]2O", "no effect"),
]
